assay-method-text: Solubility in water and aqueous formulations
Format: physicochemical
experimental-context: 0.0005 M acetic acid solution, aqueous buffer, thermodynamic from solid; read-out: Maximum solubility
quantity-measured: solubility

Specify reported solubility for the molecule shown: CC(/C=C/C=C(\C)C(=O)[O-])=C\C=C\C=C(C)\C=C\C=C(/C)C(=O)[O-].[Na+].[Na+] [TSC, trans sodium crocetinate]
6000 to 6500 µg/mL

====

assay-method-text: Intramuscular administration, absorption into the blood stream
Format: in vivo, rats
experimental-context: rat, plasma, im, 3347 μg/kg body weight; rats, intramuscular 3347 μg/kg with 14 mg 2-hydroxypropyl-β-cyclodextrin per kg
quantity-measured: bioavailability (%)
Report the value in % with no unit label.

Output bioavailability of CC(/C=C/C=C(\C)C(=O)[O-])=C\C=C\C=C(C)\C=C\C=C(/C)C(=O)[O-].[Na+].[Na+] [TSC, trans sodium crocetinate]
27

Source: patent US9950067B2
